Percent Effect values by entry
- TEST_TARGET: AMP-activated protein kinase, AMPK (Homo sapiens) (UniProt P54646+O43741+P54619+Q9UGJ0+Q9Y478+Q13131+Q9UGI9)
- EXPERIMENTAL_PROTOCOL: AMP-dependent Kinase enzyme assay. An in vitro enzyme assay that detects ADP turnover that is directly proportional to AMPK activity. This uses naive AMPK that is activated during the assay with MK-8722
- Type: functional
- Parameters: scale not given: direction of the effect not stated beside the values
- CONDITION_DETAILS: 30 µM
READOUT_LABEL: Percent Effect (%)

- COMPOUND: "O=C(c1cnccn1)N1CCc2onc(CN3CCOCC3)c2C1"
  READOUT_LABEL: "Percent Effect"
  VALUE: 11.9
- COMPOUND: "CC1CCCN(C(=O)CCc2cccnc2)C1 (centres undefined)"
  READOUT_LABEL: "Percent Effect"
  VALUE: 0.257
- COMPOUND: "O=C(NCC1CC1)Nc1cnc2cc(Cl)ccc2c1O"
  READOUT_LABEL: "Percent Effect"
  VALUE: 4.52
- COMPOUND: "CCc1nc(C(=O)N2CCCC2)nn1-c1ccccc1Cl"
  READOUT_LABEL: "Percent Effect"
  VALUE: -8.39
- COMPOUND: "Cc1nc(CN2CCc3nn(C(C)C)c(=O)cc3C2)oc1C"
  READOUT_LABEL: "Percent Effect"
  VALUE: -91.7
- COMPOUND: "COc1c(C2CCCN2Cc2csc(C(C)C)n2)c(C)nn1C (centres undefined)"
  READOUT_LABEL: "Percent Effect"
  VALUE: -4.6
- COMPOUND: "Cc1cc(-c2cnc(N3CCNC(=O)C3)nc2-c2ccc(C)o2)on1"
  READOUT_LABEL: "Percent Effect"
  VALUE: 3.79
- COMPOUND: "N#Cc1ccc(OC2CCN(C(=O)c3ccc4c(c3)OCO4)CC2)nc1"
  READOUT_LABEL: "Percent Effect"
  VALUE: -6.59
- COMPOUND: "Cn1cc(C2CCCN2C(=O)Cc2n[nH]c3ccccc23)cn1 (centres undefined)"
  READOUT_LABEL: "Percent Effect"
  VALUE: 4.87
- COMPOUND: "Fc1cccc(N2C[C@H]3CCN(c4cccnc4)C[C@H]3C2)c1"
  READOUT_LABEL: "Percent Effect"
  VALUE: 0.0628
- COMPOUND: "COc1ccc(-c2cc(C3CCCCCN3S(=O)(=O)N(C)C)on2)cc1 (centres undefined)"
  READOUT_LABEL: "Percent Effect"
  VALUE: 6.56
- COMPOUND: "CC(NC(=O)Nc1cc(F)ccc1N1CCCCC1)c1nncn1C (centres undefined)"
  READOUT_LABEL: "Percent Effect"
  VALUE: -5.33
- COMPOUND: "O=C(Nc1ccnc(OC2CCOC2)c1)c1cc(F)ccc1F (centres undefined)"
  READOUT_LABEL: "Percent Effect"
  VALUE: 2.94
- COMPOUND: "CCc1noc(CN2CCCC2c2noc(C3CC3)n2)n1 (centres undefined)"
  READOUT_LABEL: "Percent Effect"
  VALUE: -11.2
- COMPOUND: "CC(=O)N1CCC[C@H]1C(=O)NCCOc1cccc(Cl)c1"
  READOUT_LABEL: "Percent Effect"
  VALUE: -8.32
- COMPOUND: "Cc1noc(Cl)c1CC(=O)N1CCCC(n2cccn2)C1 (centres undefined)"
  READOUT_LABEL: "Percent Effect"
  VALUE: -1.76
- COMPOUND: "CN(C)C(=O)C1CN(Cc2c[nH]cn2)CCN(C2CCOCC2)C1 (centres undefined)"
  READOUT_LABEL: "Percent Effect"
  VALUE: 8.74
- COMPOUND: "Cn1cnnc1C1CCCN(C(=O)c2cnc3ccccc3n2)C1 (centres undefined)"
  READOUT_LABEL: "Percent Effect"
  VALUE: 6.07
- COMPOUND: "Cc1nnc(NCC2(c3ccc(Cl)cc3Cl)CCOCC2)c(C#N)c1C"
  READOUT_LABEL: "Percent Effect"
  VALUE: -11.6
- COMPOUND: "Cc1cc(C)c(CNC(=O)NCCOc2ccc3c(c2)CCC3)c(=O)[nH]1"
  READOUT_LABEL: "Percent Effect"
  VALUE: 0.256
- COMPOUND: "CC(NC(=O)CSCC(=O)Nc1ccccc1)c1ccccc1 (centres undefined)"
  READOUT_LABEL: "Percent Effect"
  VALUE: -2
- COMPOUND: "Cn1cc(CN2CCC(F)(F)C3(CCN(c4cnccn4)C3)C2)cn1 (centres undefined)"
  READOUT_LABEL: "Percent Effect"
  VALUE: 6.66
- COMPOUND: "Cc1cc(N2CCC(N(C)C(=O)c3ccccc3)CC2)nc(C)n1"
  READOUT_LABEL: "Percent Effect"
  VALUE: 2.37
- COMPOUND: "CCN1CCN(S(=O)(=O)c2ncn(C)c2Cl)CC1"
  READOUT_LABEL: "Percent Effect"
  VALUE: -0.0263
- COMPOUND: "COc1cccc(N2CCN(CC(O)c3ccc(C)cc3)CC2)c1 (centres undefined)"
  READOUT_LABEL: "Percent Effect"
  VALUE: -2.12
- COMPOUND: "O=C(Nc1ccccn1)C1=NN(c2ccccc2)C(=O)CN1"
  READOUT_LABEL: "Percent Effect"
  VALUE: -3.03
- COMPOUND: "Cc1nc(CCNC(=O)NC2CCN(c3ncccn3)CC2)cs1"
  READOUT_LABEL: "Percent Effect"
  VALUE: -4.69
- COMPOUND: "CC(=O)N1CCN(Cc2csc(-c3cnn(C)c3)n2)CC1"
  READOUT_LABEL: "Percent Effect"
  VALUE: -1.26
- COMPOUND: "NC(=O)CSCCC(=O)N1CCCC1c1ccsc1 (centres undefined)"
  READOUT_LABEL: "Percent Effect"
  VALUE: -4.14
- COMPOUND: "CC(=O)NCC1CCN(CC2CCOc3ccccc3C2)CC1 (centres undefined)"
  READOUT_LABEL: "Percent Effect"
  VALUE: -4.21
- COMPOUND: "CCC(O)CN1CCN(C(=O)c2cccn2Cc2cccs2)CC1 (centres undefined)"
  READOUT_LABEL: "Percent Effect"
  VALUE: 1.52
- COMPOUND: "CCS(=O)(=O)N1CCC(c2nnc(Cn3cccn3)n2C2CC2)CC1"
  READOUT_LABEL: "Percent Effect"
  VALUE: -35.4
- COMPOUND: "Cc1nc(N2CCN(C(=O)c3ccccc3)CC2)c2c(n1)c(C)nn2C"
  READOUT_LABEL: "Percent Effect"
  VALUE: 3.25
- COMPOUND: "Cn1ccnc1CC1CCCN(C(=O)Nc2cccn(C)c2=O)C1 (centres undefined)"
  READOUT_LABEL: "Percent Effect"
  VALUE: -17.1
- COMPOUND: "Cc1cc(C)n(C2CCCN(C(=O)c3cnc4onc(C)c4c3)C2)n1 (centres undefined)"
  READOUT_LABEL: "Percent Effect"
  VALUE: 2.66
- COMPOUND: "COCCN1C[C@@H]2CCCO[C@@H]2[C@H](N(C)Cc2ccco2)C1"
  READOUT_LABEL: "Percent Effect"
  VALUE: 1.93
- COMPOUND: "COCCN(C)C[C@@H]1CN(C(=O)c2cccc(C(F)(F)F)c2)C[C@@H]1CO"
  READOUT_LABEL: "Percent Effect"
  VALUE: 1.75
- COMPOUND: "Cc1nc(C)n(CC2CN(c3ncnc4[nH]ccc34)CCO2)n1 (centres undefined)"
  READOUT_LABEL: "Percent Effect"
  VALUE: 24
- COMPOUND: "CN(C)CCNC(=O)c1cc(-c2cnc(N3CCCC3)nc2)cn1C"
  READOUT_LABEL: "Percent Effect"
  VALUE: 9.86
